study_system: T1, ECF30_35
T1 chain: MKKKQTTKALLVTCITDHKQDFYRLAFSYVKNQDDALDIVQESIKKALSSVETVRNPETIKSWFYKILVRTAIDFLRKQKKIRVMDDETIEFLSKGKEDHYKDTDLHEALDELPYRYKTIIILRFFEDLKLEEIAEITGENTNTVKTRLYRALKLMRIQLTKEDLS
fold repression of 3 or higher: YES. Under 3: NO.

Does the binder AS14_1324 (protein) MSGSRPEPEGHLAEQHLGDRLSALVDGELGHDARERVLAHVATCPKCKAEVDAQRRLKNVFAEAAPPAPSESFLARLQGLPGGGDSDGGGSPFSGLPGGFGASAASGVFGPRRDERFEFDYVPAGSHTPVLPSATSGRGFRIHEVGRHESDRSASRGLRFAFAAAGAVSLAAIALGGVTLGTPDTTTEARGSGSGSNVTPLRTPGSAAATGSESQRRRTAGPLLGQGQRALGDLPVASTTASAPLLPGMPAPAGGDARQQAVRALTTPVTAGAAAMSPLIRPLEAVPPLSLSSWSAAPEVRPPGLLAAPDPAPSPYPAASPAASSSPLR have recorded fold repression that is 3 or more?
YES

Kindly determine if fold repression recorded for AS33_375 (protein) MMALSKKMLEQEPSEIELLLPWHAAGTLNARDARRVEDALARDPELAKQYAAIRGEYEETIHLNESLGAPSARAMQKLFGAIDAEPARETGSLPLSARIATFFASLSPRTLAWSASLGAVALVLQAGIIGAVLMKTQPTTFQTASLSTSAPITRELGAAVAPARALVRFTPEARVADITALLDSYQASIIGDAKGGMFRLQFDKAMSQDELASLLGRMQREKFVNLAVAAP is above or exactly 3.
YES

Confirm if fold repression reported for the binder AS27_4265 (protein) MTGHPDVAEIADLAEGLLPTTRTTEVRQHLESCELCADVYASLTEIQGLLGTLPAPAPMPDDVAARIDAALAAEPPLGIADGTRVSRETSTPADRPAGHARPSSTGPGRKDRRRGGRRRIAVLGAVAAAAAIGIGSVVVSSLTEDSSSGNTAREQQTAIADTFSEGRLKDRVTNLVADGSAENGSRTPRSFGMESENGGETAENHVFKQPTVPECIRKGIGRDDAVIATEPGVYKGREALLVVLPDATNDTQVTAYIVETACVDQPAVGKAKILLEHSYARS is 3 or above.
YES

API: above_or_equal(metric=fold repression, cutoff=3) for item AS20_992 (protein) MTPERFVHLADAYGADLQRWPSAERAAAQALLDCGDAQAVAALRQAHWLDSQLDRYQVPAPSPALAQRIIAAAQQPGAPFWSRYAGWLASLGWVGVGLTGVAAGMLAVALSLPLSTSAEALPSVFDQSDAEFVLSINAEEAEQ
NO

# bool: fold repression of AS16_3622 (protein) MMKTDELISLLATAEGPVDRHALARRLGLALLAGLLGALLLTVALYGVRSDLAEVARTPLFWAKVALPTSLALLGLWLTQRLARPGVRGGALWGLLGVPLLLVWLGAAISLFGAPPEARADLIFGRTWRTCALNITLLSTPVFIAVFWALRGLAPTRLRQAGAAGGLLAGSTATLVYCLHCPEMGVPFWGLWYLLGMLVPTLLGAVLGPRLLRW >= 3
NO

Does the binder AS35_3582 (protein) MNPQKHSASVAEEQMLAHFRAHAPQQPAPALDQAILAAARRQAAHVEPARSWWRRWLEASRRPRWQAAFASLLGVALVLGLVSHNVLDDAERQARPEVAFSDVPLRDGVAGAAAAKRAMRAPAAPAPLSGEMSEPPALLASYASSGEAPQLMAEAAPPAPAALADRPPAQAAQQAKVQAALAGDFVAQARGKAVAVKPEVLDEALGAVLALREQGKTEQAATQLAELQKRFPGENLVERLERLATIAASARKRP have recorded fold repression that is 3 or more?
NO

Hi team, for AS16_973 (protein) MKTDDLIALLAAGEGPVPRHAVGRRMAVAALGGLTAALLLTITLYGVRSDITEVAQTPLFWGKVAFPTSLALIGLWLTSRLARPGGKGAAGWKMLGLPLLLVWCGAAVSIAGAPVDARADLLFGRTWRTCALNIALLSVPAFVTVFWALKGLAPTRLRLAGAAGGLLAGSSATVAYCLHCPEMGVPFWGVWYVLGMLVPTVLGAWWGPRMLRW , is the recorded fold repression at or above 3?
NO

Check this binder for fold repression at or above 3: AS03_1198 (protein) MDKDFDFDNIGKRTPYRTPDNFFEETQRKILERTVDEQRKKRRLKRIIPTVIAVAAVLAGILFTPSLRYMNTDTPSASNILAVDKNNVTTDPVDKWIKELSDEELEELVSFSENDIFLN
NO

Answer whether fold repression of AS27_1331 (protein) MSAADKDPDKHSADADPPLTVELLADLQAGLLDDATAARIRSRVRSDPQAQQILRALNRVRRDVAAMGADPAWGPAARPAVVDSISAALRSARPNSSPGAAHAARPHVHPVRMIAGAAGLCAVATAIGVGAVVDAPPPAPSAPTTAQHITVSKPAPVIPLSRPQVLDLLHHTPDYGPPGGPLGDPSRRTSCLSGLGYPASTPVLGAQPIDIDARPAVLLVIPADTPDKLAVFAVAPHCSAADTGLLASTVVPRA is greater than or equal to 3.
YES

Evaluate AS30_35 (protein) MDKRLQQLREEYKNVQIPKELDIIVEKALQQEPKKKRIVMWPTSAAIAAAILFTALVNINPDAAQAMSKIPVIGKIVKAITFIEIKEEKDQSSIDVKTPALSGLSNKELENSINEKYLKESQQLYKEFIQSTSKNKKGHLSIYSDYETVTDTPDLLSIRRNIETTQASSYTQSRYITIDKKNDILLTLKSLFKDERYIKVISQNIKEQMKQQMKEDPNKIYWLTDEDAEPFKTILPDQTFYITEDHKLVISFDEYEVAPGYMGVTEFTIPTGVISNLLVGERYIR : fold repression at minimum 3?
YES
